Taken from patent US20220315624A1.

Assay: Aqueous solubility analysis in MOPS buffer
Format: physicochemical
Settings: aqueous 10 mM MOPS buffer, thermodynamic from solid; after 24 hours in 10 mM aqueous MOPS buffer, pH 7.2
Method: A 2 dram vial was loaded with ˜0.5 mg of a thiostrepton derivative and suspended in ˜4 mL of aqueous 10 mM MOPS buffer (pKa 7.2). The suspension was stirred vigorously for 24 h to ensure equilibration, then filtered through a […] centrifuge filtration unit. A 3.0 mL aliquot was concentrated, and the dried residue was diluted with 0.30 mL of 1:1 1,4-dioxane/H2O (10× original concentration necessitated by detection limits). […]
quantity_kind: solubility at 24 h (µg/mL)
Form entry: value (µg/mL) — number only.

- compound_smiles: "C=C(NC(=O)c1csc(C2=N[C@@H]3c4csc(n4)[C@H]4NC(=O)c5csc(n5)[C@H]([C@](C)(O)[C@@H](C)O)NC(=O)C5CSC(=N5)/C(=C/C)NC(=O)[C@H]([C@@H](C)O)NC(=O)c5csc(n5)[C@]3(CC2)NC(=O)[C@H](C)NC(=O)C(=C)NC(=O)[C@H](C)NC(=O)[C@H]([C@@H](C)CC)N[C@@H]2C=Cc3c([C@H](C)O)cc(nc3[C@H]2O)C(=O)O[C@@H]4C)n1)C(=O)NC(=CNC(=O)c1cccc(/C=N/OCCO)c1)C(N)=O"
  solubility at 24 h (µg/mL): 1.4

Proceed to the following item.
IN: Which value of solubility at 24 h has been reported for C=C(NC(=O)c1csc(C2=N[C@@H]3c4csc(n4)[C@H]4NC(=O)c5csc(n5)[C@H]([C@](C)(O)[C@@H](C)O)NC(=O)C5CSC(=N5)/C(=C/C)NC(=O)[C@H]([C@@H](C)O)NC(=O)c5csc(n5)[C@]3(CC2)NC(=O)[C@H](C)NC(=O)C(=C)NC(=O)[C@H](C)NC(=O)[C@H]([C@@H](C)CC)N[C@@H]2C=Cc3c([C@H](C)O)cc(nc3[C@H]2O)C(=O)O[C@@H]4C)n1)C(=O)NC(=CNC(=O)C(C)C)C(N)=O in the records?
OUT: 16.2
